- assay_procedure: Selectivity index, ratio of GI50 for human THP1 cells to MIC90 for dormant Mycobacterium bovis BCG ATCC 35734
- Assay type: toxicity
- applied_conditions: THP-1 cells, read-out: Selectivity Index
Kindly supply the reported selectivity ratio values for the records listed here.

[[record]]
smiles_input = "Cc1cc(O)c(C(=O)CC(=O)c2cc3ccccc3s2)cc1Cl"
measurement = "> 22"

[[record]]
smiles_input = "Cc1ccc2oc(-c3cc4ccccc4s3)cc(=O)c2c1"
measurement = "> 22"


Below: the item to evaluate.
Task: Data request, read-out selectivity ratio, for Cc1cc2oc(-c3cc4ccccc4s3)cc(=O)c2cc1Cl
Result: > 30
